These measurements were taken from the kinase profiling compilation of Christmann-Franck et al. (2016).

# Test system: AKT1 (human), P31749 [S473D]
# Sequence (P31749 whole entry S473D, looked up): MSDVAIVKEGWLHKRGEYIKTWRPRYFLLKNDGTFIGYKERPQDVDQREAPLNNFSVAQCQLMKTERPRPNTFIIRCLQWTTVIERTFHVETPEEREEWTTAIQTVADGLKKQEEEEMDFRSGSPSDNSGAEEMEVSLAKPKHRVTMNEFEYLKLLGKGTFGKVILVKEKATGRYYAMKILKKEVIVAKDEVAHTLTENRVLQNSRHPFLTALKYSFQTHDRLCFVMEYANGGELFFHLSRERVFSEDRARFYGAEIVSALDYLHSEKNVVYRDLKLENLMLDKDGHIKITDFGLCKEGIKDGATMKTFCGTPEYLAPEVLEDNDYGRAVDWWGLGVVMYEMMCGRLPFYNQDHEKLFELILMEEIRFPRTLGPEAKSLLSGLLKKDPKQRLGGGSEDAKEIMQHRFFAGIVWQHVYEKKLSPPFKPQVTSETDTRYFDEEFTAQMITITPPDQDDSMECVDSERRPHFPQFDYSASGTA
# ASSAY DETAILS: radiometric filter-binding kinase assay
# CONDITION CONTEXT: compound 0.1 µM
PROPERTY LABEL: residual activity (%)

[[record]]
smiles_data = "NC(=O)c1cc2c(-c3cccc(-c4ccccc4)c3)cnc(N)c2s1"
target_system = "AKT1 (human), P31749 [S473D]"
property_label = "residual activity"
unit_descriptor = "%"
result_number = 105

[[record]]
smiles_data = "COc1ccc(-n2ncc3cnc(Nc4cc(OC)c(OC)c(OCCCN5CCN(C)CC5)c4)nc32)cc1"
target_system = "AKT1 (human), P31749 [S473D]"
property_label = "residual activity"
unit_descriptor = "%"
result_number = 99

[[record]]
smiles_data = "COc1ccc(N(C(=O)Nc2c(C)cccc2C)c2cc(Nc3ccc(N4CCN(C)CC4)cc3)ncn2)c(OC)c1"
target_system = "AKT1 (human), P31749 [S473D]"
property_label = "residual activity"
unit_descriptor = "%"
result_number = 92

[[record]]
smiles_data = "Cc1ccc(-c2ccc3c(ccc4sc5c(c43)NC[C@@H](C)NC5=O)n2)cn1"
target_system = "AKT1 (human), P31749 [S473D]"
property_label = "residual activity"
unit_descriptor = "%"
result_number = 109

[[record]]
smiles_data = "O=C(NCCCNc1nc(Nc2cccc(CN3CCOCC3)c2)ncc1C1CC1)C1CCC1"
target_system = "AKT1 (human), P31749 [S473D]"
property_label = "residual activity"
unit_descriptor = "%"
result_number = 90

[[record]]
smiles_data = "NC1(c2ccc(-c3nc4ccn5c(=O)[nH]nc5c4cc3-c3ccccc3)cc2)CCC1"
target_system = "AKT1 (human), P31749 [S473D]"
property_label = "residual activity"
unit_descriptor = "%"
result_number = 103

[[record]]
smiles_data = "c1ccc2c(-c3cnn4cc(-c5ccc(N6CCNCC6)cc5)cnc34)ccnc2c1"
target_system = "AKT1 (human), P31749 [S473D]"
property_label = "residual activity"
unit_descriptor = "%"
result_number = 102

[[record]]
smiles_data = "NC(=O)Nc1ccc2c(c1)/C(=C/c1cc(-c3cccnc3)c[nH]1)C(=O)N2"
target_system = "AKT1 (human), P31749 [S473D]"
property_label = "residual activity"
unit_descriptor = "%"
result_number = 85

[[record]]
smiles_data = "NC(=O)c1cc(-c2ccnc(NC3CCCCC3)c2)nc(N2CCNCC2)c1"
target_system = "AKT1 (human), P31749 [S473D]"
property_label = "residual activity"
unit_descriptor = "%"
result_number = 109

[[record]]
smiles_data = "O=C(N[C@@H](COc1ccc2[nH]c(=O)[nH]c2c1)c1ccccc1)c1cccn(Cc2ccc(F)c(F)c2)c1=O"
target_system = "AKT1 (human), P31749 [S473D]"
property_label = "residual activity"
unit_descriptor = "%"
result_number = 96


* * *

# TARGET SYSTEM: FLT1 (human)
# ASSAY DETAILS: radiometric filter-binding kinase assay
# CONDITION CONTEXT: compound 0.01 µM
PROPERTY LABEL: residual activity (%)

Solved entries:
[[record]]
molecule = "C/C(=C1/C(=O)Nc2ccc(NC(N)=O)cc21)c1ccc[nH]1"
target_system = "FLT1 (human)"
unit_descriptor = "%"
result_number = 50

[[record]]
molecule = "CNc1nc(-c2ccc3c(N)n[nH]c3c2)cc(N2C[C@@H](C(=O)NC3CCCCC3)CC[C@H]2C)n1"
target_system = "FLT1 (human)"
unit_descriptor = "%"
result_number = 98

[[record]]
molecule = "COc1ccc(N(C(=O)Nc2c(C)cccc2C)c2cc(Nc3ccc(N4CCN(C)CC4)cc3)ncn2)c(OC)c1"
target_system = "FLT1 (human)"
unit_descriptor = "%"
result_number = 95


I = O=C(Nc1nc2cc(C(F)(F)F)cc(NC3CC3)n2n1)c1cccnc1
II = COc1cc(O)c2c(c1)[C@H]1OC1C[C@H](O)[C@H](O)C(=O)/C=C\C[C@H](C)OC2=O (stereo partly specified)
III = CNC(=O)C1[C@H]2O[C@@](C)([C@@H]1N)n1c3ccccc3c3c4c(c5c6ccccc6n2c5c31)C(=O)NC4 (stereo partly specified)
Problem: Could you please order the items by residual activity, going from the lowest number to the highest? Could you list the labels in the order requested?
Result: III, II, I
(III: 17%, II: 65%, I: 109%)

* * *

# TARGET SYSTEM: MARK4 (human)
# ASSAY DETAILS: radiometric filter-binding kinase assay
# CONDITION CONTEXT: compound 0.01 µM
PROPERTY LABEL: residual activity (%)

[[record]]
compound = "O=C(Nc1nc2cc(C(F)(F)F)cc(NC3CC3)n2n1)c1cccnc1"
property_label = "residual activity"
unit_descriptor = "%"
result_number = 127

[[record]]
compound = "COc1cc(O)c2c(c1)[C@H]1OC1C[C@H](O)[C@H](O)C(=O)/C=C\\C[C@H](C)OC2=O (stereo not given in full)"
property_label = "residual activity"
unit_descriptor = "%"
result_number = 103

[[record]]
compound = "COc1ccc(N(C(=O)Nc2c(C)cccc2C)c2cc(Nc3ccc(N4CCN(C)CC4)cc3)ncn2)c(OC)c1"
property_label = "residual activity"
unit_descriptor = "%"
result_number = 120


A = CNC(=O)C1[C@H]2O[C@@](C)([C@@H]1N)n1c3ccccc3c3c4c(c5c6ccccc6n2c5c31)C(=O)NC4 (stereo not given in full)
B = CNc1nc(-c2ccc3c(N)n[nH]c3c2)cc(N2C[C@@H](C(=O)NC3CCCCC3)CC[C@H]2C)n1
Problem: Sort A and B by residual activity descending and give the first. Return value: the label identifying the chosen record.
Result: B
(B: 106%, A: 10%)

* * *

# TARGET SYSTEM: UniProtKB P45983
# Sequence (P45983 whole entry, looked up): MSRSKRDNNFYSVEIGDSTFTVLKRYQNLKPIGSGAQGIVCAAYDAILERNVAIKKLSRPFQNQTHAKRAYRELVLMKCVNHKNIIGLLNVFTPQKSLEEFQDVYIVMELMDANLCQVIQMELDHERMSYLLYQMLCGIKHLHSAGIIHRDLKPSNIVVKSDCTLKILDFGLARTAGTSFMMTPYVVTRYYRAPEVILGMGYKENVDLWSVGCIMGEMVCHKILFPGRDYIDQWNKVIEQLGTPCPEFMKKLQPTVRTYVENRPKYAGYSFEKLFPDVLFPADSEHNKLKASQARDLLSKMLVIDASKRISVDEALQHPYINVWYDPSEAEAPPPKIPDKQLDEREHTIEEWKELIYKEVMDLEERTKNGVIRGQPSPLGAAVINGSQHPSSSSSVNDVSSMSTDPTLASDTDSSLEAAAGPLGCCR
# ASSAY DETAILS: radiometric filter-binding kinase assay
# CONDITION CONTEXT: compound 0.1 µM
PROPERTY LABEL: residual activity (%)

Solved entries:
[[record]]
compound = "C=CC(=O)N1CCC[C@@H](n2nc(-c3ccc(Oc4ccccc4)cc3)c3c(N)ncnc32)C1"
property_label = "residual activity"
result_number = 98

[[record]]
compound = "NC(=O)Nc1ccc2c(c1)/C(=C/c1cc(-c3cccnc3)c[nH]1)C(=O)N2"
property_label = "residual activity"
result_number = 124

[[record]]
compound = "NC(=O)c1cc2c(-c3cccc(-c4ccccc4)c3)cnc(N)c2s1"
property_label = "residual activity"
result_number = 111

[[record]]
compound = "O=C(Nc1ccccc1-c1cn2c(CN3CCNCC3)csc2n1)c1cnc2ccccc2n1"
property_label = "residual activity"
result_number = 116

[[record]]
compound = "Cc1cc(NC(=O)c2cccc(NC(=O)/C=C/CN(C)C)c2)ccc1Nc1nccc(-c2cccnc2)n1"
property_label = "residual activity"
result_number = 13


I = COc1ccc2c(c1)c1c3c(c4c5ccccc5n(C)c4c1n2CC(O)CN(C)C)C(=O)NC3=O (centres undefined)
II = CN(C)C/C=C/C(=O)Nc1cccc(C(=O)Nc2ccc(Nc3nccc(-c4cccnc4)n3)cc2)c1
Problem: # compare residual activity for I vs II ; return the one with the smaller value Return value: the label identifying the chosen record.
Result: II
(II: 9%, I: 103%)

* * *

# TARGET SYSTEM: MST4 (human)
# ASSAY DETAILS: radiometric filter-binding kinase assay
# CONDITION CONTEXT: compound 1.0 µM
PROPERTY LABEL: residual activity (%)

[[record]]
smiles_data = "O=c1c(O)c(-c2ccc(O)c(O)c2)oc2cc(O)c(O)c(O)c12"
unit_descriptor = "%"
result_number = 87

[[record]]
smiles_data = "c1ccc2c(-c3cnn4cc(-c5ccc(N6CCNCC6)cc5)cnc34)ccnc2c1"
unit_descriptor = "%"
result_number = 123

[[record]]
smiles_data = "O=C(O)c1cc(N=Nc2ccc(S(=O)(=O)Nc3ccccn3)cc2)ccc1O"
unit_descriptor = "%"
result_number = 102

[[record]]
smiles_data = "Cc1cc(NC(=O)c2cccc(NC(=O)/C=C/CN(C)C)c2)ccc1Nc1nccc(-c2cccnc2)n1"
unit_descriptor = "%"
result_number = 79

[[record]]
smiles_data = "COc1ccc(-n2ncc3cnc(Nc4cc(OC)c(OC)c(OCCCN5CCN(C)CC5)c4)nc32)cc1"
unit_descriptor = "%"
result_number = 67

[[record]]
smiles_data = "NC(=O)c1cc2c(-c3cccc(-c4ccccc4)c3)cnc(N)c2s1"
unit_descriptor = "%"
result_number = 75

[[record]]
smiles_data = "Cn1c(=O)c2c(ncn2C)n(C)c1=O"
unit_descriptor = "%"
result_number = 97

[[record]]
smiles_data = "CC(C)(C#N)c1ccc(N2C(=O)OCc3cnc4ccc(-c5cnc6ccccc6c5)cc4c32)cc1"
unit_descriptor = "%"
result_number = 93

[[record]]
smiles_data = "O=C(N[C@@H](COc1ccc2[nH]c(=O)[nH]c2c1)c1ccccc1)c1cccn(Cc2ccc(F)c(F)c2)c1=O"
unit_descriptor = "%"
result_number = 117

